- Tested on: Radical scavenging activity
- MEASUREMENT_PROTOCOL: Antioxidant activity assessed as DPPH radical scavenging activity after 30 mins
- Type: functional
IC50 values by entry

# RECORD_SMILES, IC50 [µM]
rows = [
    ("O=C(/C=C/c1ccc(O)c(O)c1)O[C@@H]1[C@@H](O)[C@H](O)[C@@H](CO)O[C@H]1c1c(O)cc2oc3cc(O)c(O)cc3c(=O)c2c1O", 17.8),
    ("O=C(O[C@@H]1[C@@H](O)[C@H](O)[C@@H](CO)O[C@H]1c1c(O)cc2oc3cc(O)c(O)cc3c(=O)c2c1O)c1ccccc1", 32.7),
    ("O=c1c2cc(O)c(O)cc2oc2cc(O)c([C@@H]3O[C@H](CO)[C@@H](O)[C@H](O)[C@H]3O)c(O)c12", 35),
    ("O=C(O[C@@H]1[C@@H](O)[C@H](O)[C@@H](CO)O[C@H]1c1c(O)cc2oc3cc(O)c(O)cc3c(=O)c2c1O)c1ccc(O)cc1", 30.7),
]

Measured values drawn from ChEMBL document CHEMBL1147239 for this set.
